# Assayed target: HLA-B*5301 (human)
# Method: competition vs 125I probe peptide, purified HLA
Readout type: IC50 (nM)

* FPSWPLSSSV [p53.88.F1] | 93
* FPILTIITI [p53.249.F1I9] | 4
